Data provenance is paper PMC4416922.

target: human type-I InsP 3 receptor ligand binding domain (InsP3R-LBD) (Homo sapiens, UniProt Q14643, R265K); construct: residues 224-605, mRFP- and 6xHis-tagged; test: [3H]InsP3 radioligand displacement on purified recombinant protein, Scatchard analysis
Sequence (Q14643 224-605 R265K): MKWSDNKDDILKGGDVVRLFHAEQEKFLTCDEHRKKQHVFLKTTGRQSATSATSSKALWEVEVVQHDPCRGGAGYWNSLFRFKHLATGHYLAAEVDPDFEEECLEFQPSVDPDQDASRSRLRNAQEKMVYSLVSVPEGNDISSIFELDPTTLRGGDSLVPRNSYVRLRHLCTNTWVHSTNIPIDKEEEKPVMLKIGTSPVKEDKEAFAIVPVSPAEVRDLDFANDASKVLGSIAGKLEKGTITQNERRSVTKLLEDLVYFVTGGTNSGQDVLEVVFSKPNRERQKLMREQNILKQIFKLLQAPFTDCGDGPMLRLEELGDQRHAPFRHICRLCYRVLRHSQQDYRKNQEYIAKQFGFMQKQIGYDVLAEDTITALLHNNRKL
result.type: Kd (nM)
Numbers only; they are read as nM.

Task: Which Kd value belongs to O=P(O)(O)O[C@@H]1[C@H](O)[C@H](O)[C@@H](OP(=O)(O)O)[C@H](OP(=O)(O)O)[C@H]1O ?
Output: 6.06

====

target: human type-I InsP 3 receptor ligand binding domain (InsP3R-LBD) (Homo sapiens, UniProt Q14643); construct: residues 224-605, mRFP- and 6xHis-tagged; assay: [3H]InsP3 radioligand displacement on purified recombinant protein, Scatchard analysis
Sequence (Q14643 224-605): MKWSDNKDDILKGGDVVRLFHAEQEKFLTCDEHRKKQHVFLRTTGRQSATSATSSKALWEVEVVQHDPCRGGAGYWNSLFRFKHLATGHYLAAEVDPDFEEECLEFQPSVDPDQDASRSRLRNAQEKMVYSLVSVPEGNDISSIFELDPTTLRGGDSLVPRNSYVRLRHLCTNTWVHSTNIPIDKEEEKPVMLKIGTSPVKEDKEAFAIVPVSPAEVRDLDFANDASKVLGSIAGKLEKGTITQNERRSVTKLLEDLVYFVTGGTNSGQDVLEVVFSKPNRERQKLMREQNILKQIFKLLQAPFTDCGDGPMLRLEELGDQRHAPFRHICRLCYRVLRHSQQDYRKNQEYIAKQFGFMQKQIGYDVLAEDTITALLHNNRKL
result.type: pKd
The value called pKd is obtained by taking minus log10 of the concentration in mol/L.

Task: Which measured pKd value corresponds to O=P(O)(O)O[C@@H]1[C@H](O)[C@H](O)[C@@H](OP(=O)(O)O)[C@H](OP(=O)(O)O)[C@H]1O [InsP 3] ?
Output: 8.52
